Tested on: MCF7 breast
Assay: NCI tumour cell line growth inhibition, 48 h
Where a SMILES comes first, the peptide text is derived from it.
PROPERTY_NAME: TGI

molecule="CC(=O)NC(CO)C(=O)NC(Cc1ccc(O)cc1)C(=O)NCC(N)=O (stereo not drawn) (Ac-Ser-Tyr-Gly-NH2; configuration not given here)" subject_of_test="MCF7 breast" reported_result="> 100 µM"
molecule="Cn1ncnc1C1c2n[nH]c(=O)c3cc(F)cc(c23)NC1c1ccc(F)cc1 (stereo not given)" subject_of_test="MCF7 breast" reported_result="> 100 µM"

Bench note, MCF7 breast: entry CC(Cc1ccc2c(c1)OCO2)N(C)C(=O)C1=CCN(C)CC1 (stereo not given) , its TGI = > 100 µM

Record Cc1cc(C(O)CNC(C)CCn2cnc3c2c(=O)n(C)c(=O)n3C)ccc1O (stereo not given) ; system MCF7 breast; TGI = > 100 µM

TGI of CCCCN(CCCC)CCC(O)c1cc2ccc(C(F)(F)F)cc2c2cc(C(F)(F)F)ccc12 (stereo not given) , assay on MCF7 breast, is 3.74 µM

# value of TGI, MCF7 breast, item CCCC(CCC)C(=O)OCC1(CO)C/C(=C\c2ccc(C(F)(F)F)cc2)C(=O)O1 (stereo not given) = 33.9 µM

For the molecule CN1CCCC(C(=O)OCC(=O)C2(O)CCC3C4CCC5=CC(=O)CCC5(C)C4C(O)CC32C)C1 (stereo not given) , the measured TGI on MCF7 breast was > 65.6 µM

###

Consider the following compounds and their measured GI50 readings.
Tested on: BT-549 breast
Experiment: NCI tumour cell line growth inhibition, 48 h

Entry Cc1ccccc1NC(=O)c1cc2ccccc2cc1O ; GI50 = 3.46 µM

Field GI50 (entry CCC(=O)c1c(C(F)(F)F)n([O-])c2ccccc2[n+]1=O ) reads 2 µM

Briefly, GI50 measured for COc1ccc(CN=C(N)N=C(N)N)cc1OC : 260 µM

###

Catalogue of compounds with associated TGI
System: EKVX NSCLC
Assay: NCI tumour cell line growth inhibition, 48 h
Where a SMILES comes first, the peptide text is derived from it.

Consider the worked cases shown below.
compound=CC1=C(C(=O)Nc2ccccc2C)C(c2ccccc2C)C(C(=O)Nc2ccccc2C)=C(C)N1 reported_result="42.3 µM"
compound=COc1cccc(C(=O)N[C@@H]2[C@H](O)[C@@H](CO)O[C@H]2n2cnc3c(N)ncnc32)c1 reported_result="> 100 µM"
compound=NCCCCCNOCCCN reported_result="> 100 µM"
compound="C=C(C)C(=O)O[C@H]1CC2=CC(CC(C)=C[C@H]3OC(=O)C(=C)C13)OC2=O (stereo partly specified)" reported_result="43.8 µM"
compound=Cc1ccccc1NC(=O)c1cc2ccccc2cc1O reported_result="91.8 µM"

Fill in: EKVX NSCLC TGI for CC(=O)NC(CO)C(=O)NC(Cc1ccc(O)cc1)C(=O)NCC(N)=O (stereo not drawn) (Ac-Ser-Tyr-Gly-NH2; configuration not given here) = > 100 µM

Result for O=C(Cn1c2ccccc2c2ccncc21)N/N=C\c1ccc2ccccc2c1 , tested on EKVX NSCLC, TGI: > 100 µM

Entry CC(=O)O[C@H]1CC[C@@]2(C)C(=C/C(=N\[N+](=O)[O-])[C@H]3C4CCC([C@H](C)CCCC(C)C)[C@@]4(C)CCC32)C1 (stereo partly specified) under EKVX NSCLC had TGI of > 100 µM

Form: item Cc1ccc([N+](=O)[O-])c2c(NCCC[N+](C)(C)[O-])ccnc12 ; test system EKVX NSCLC; TGI: > 100 µM

Summary: O=C1Cc2ccccc2CCc2ccsc21 , EKVX NSCLC, TGI = > 100 µM

With EKVX NSCLC as the test system, COc1cc(/C=C\c2ccc(Cl)cc2)cc(OC)c1OC showed TGI of > 87.5 µM

###

Overview of reported TGI across a group of compounds:
System: CCRF-CEM leukemia
Assay: NCI tumour cell line growth inhibition, 48 h
*1 amine or outer side, *2 acyl side, *3 side chain or, on linkers, in order; H or OH if unused. Where a SMILES comes first, the peptide text is derived from it. [ ]: non-standard residue; d: D form. The star is where a group is joined. X31 = CC(=O)N(C)SCC(N[*:1])C(=O)[*:2]; Fmoc = O=C(OCC1c2ccccc2-c2ccccc21)*; For = O=C*

Reference set (5 entries):
compound=CNc1ncc2cc(Oc3ccc(F)cc3F)c(=O)n(C)c2n1 reported_result="> 25 µM"
compound=COc1ccc(/C=C(\Cl)c2ccc(OC)cc2)cc1 reported_result="> 100 µM"
compound="CC(Cc1ccc2c(c1)OCO2)N(C)C(=O)C1=CCN(C)CC1 (stereo not given)" reported_result="> 100 µM"
compound="O=C(NC1C=Nc2ccccc2NC1=O)c1ccccc1Cl (stereo not given)" reported_result="> 100 µM"
compound="CC(=O)N(C)SCC(NC(=O)C(Cc1ccccc1)NC(=O)OCC1c2ccccc2-c2ccccc21)C(=O)NC(Cc1ccccc1)C(=O)NC(Cc1cn(C=O)c2ccccc12)C(=O)NC(CCCCNC(=O)OCC1c2ccccc2-c2ccccc21)C(=O)NC(C(=O)NC(CSN(C)C(C)=O)C(=O)NC(C(N)=O)C(C)O)C(C)O (stereo not given) (Fmoc-F[X31]FW(For)K(Fmoc)T[X31]T-NH2; configuration not given here)" reported_result="> 100 µM"

Summary for this compound, Cc1ccc(Nc2nc(C)c(C(/C=C/c3ccc4c(c3)OCO4)=N/Nc3ccc([N+](=O)[O-])cc3[N+](=O)[O-])s2)c([N+](=O)[O-])c1 : TGI is > 100 µM

Quick note, TGI for Oc1ccc(O)c2c1C1(Cl)C(Cl)=C(Cl)C2(Cl)C1(Cl)Cl landed at > 100 µM

Quick note, TGI for O=C1NN=C(c2ccc([N+](=O)[O-])cc2)C1n1nc(-c2ccccc2)c2ccccc2c1=O (stereo not given) landed at > 100 µM

For Cc1cc(Cl)ccc1Nc1nc(C(F)(F)F)ccc1C(=O)Nc1cccc(C(F)(F)F)c1 the compound record lists TGI as 14.7 µM

TGI for COc1ccccc1Cn1[nH]c(=O)c2cc([N+](=O)[O-])ccc21 is > 100 µM

###

Tested on: NCI-H226 lung
Test: NCI tumour cell line growth inhibition, 48 h
PROPERTY_NAME: TGI

The examples below pair each entry with its known result.
compound="O=C1NN=C(c2ccc([N+](=O)[O-])cc2)C1n1nc(-c2ccccc2)c2ccccc2c1=O (stereo unspecified)" reported_result="> 100 µM"
compound="CCOC(=O)C1Oc2ccc([N+](=O)[O-])cc2C1(C)O (stereo unspecified)" reported_result="> 100 µM"
compound="CCOC(=O)NC(=S)NC(C)c1ccccc1 (stereo unspecified)" reported_result="> 100 µM"
compound=Cn1c(=O)sc2cc(C(=S)N3CCN(c4ccccc4)CC3)ccc21 reported_result="> 100 µM"
compound=CNc1ncnc2c1cnn2Cc1cn(CCCCO)nn1 reported_result="> 100 µM"

Now look at this one.
Entry c1ccc(CSC(SCc2ccccc2)c2ccc3c(c2)OCO3)cc1 , TGI reported as > 10 µM

###

TGI values by entry
Test system: OVCAR-3 ovarian
Experiment: NCI tumour cell line growth inhibition, 48 h

compound=COC(=O)[C@@H]1[C@H](O)CC[C@H]2[C@@]1(C)CC[C@@H](C)[C@]2(COC(C)=O)CC(=O)c1ccoc1 reported_result="> 50 µM"

Documented TGI of Cc1c(C(N)=O)sc2c1c(=O)n(Cc1ccccc1)c1nnc(S(=O)(=O)CC(=O)Nc3ccc(Cl)cc3)n21 : 18 µM

Memo: COc1ccc(/C(C#N)=C(/N)SCc2ccccc2Cl)cc1 , reported TGI: 24.3 µM

###

Quick reference: TGI of the listed items.
Test system: TK-10 renal
Assay: NCI tumour cell line growth inhibition, 48 h
Where a SMILES comes first, the peptide text is derived from it.

Below, each entry is followed by its recorded TGI result.
compound=COC(=O)C1=NN2c3ccccc3CN([C@@H](C)c3ccccc3)C(=O)[C@H]2[C@@H]1C subject_of_test="TK-10 renal" property_name=TGI reported_result="> 100 µM"
compound=CC(=O)O/N=C/c1cc2c(cc1Br)OCO2 subject_of_test="TK-10 renal" property_name=TGI reported_result="> 349 µM"
compound="C=CCC1C2CCC(O[Si](C(C)C)(C(C)C)C(C)C)(C(C(=O)OC)C2)C1O (stereo not given)" subject_of_test="TK-10 renal" property_name=TGI reported_result="> 100 µM"
compound="CC(=O)NC(CO)C(=O)NC(Cc1ccc(O)cc1)C(=O)NCC(N)=O (stereo not drawn) (Ac-Ser-Tyr-Gly-NH2; configuration not given here)" subject_of_test="TK-10 renal" property_name=TGI reported_result="> 100 µM"

Lab note: next compound to report on.
Sample O=C(O)CN=c1c2ccccc2n(O)c2ccccc12 ; TGI observed: > 100 µM
